System: MDA-N
Test: NCI tumour cell line growth inhibition, 48 h
Calls of active or inactive are those of the source. Cut-off read from the data, not from the text of the source: active = GI50 up to about 1.1 µM and inactive = higher.
Outcome field: choose from active, inactive

[Q] Hello, I am checking results. What call was entered for `N#Cc1c(O)n(-c2ccccc2)c(=O)c2c(N)n[nH]c12` ?
[A] inactive

[Q] Hello, I am checking results. What call was entered for `COC(=O)CCC(=O)NC1=C(Nc2ccccc2)C(=O)c2ccccc2C1=O` ?
[A] inactive

[Q] Hello, I am checking results. What call was entered for `Cc1cc(C)c(-n2c(-c3ccc(Br)cc3)cs/c2=N\N=C2C=C(C(C)(C)C)C(=O)C(C(C)(C)C)=C2)c(C)c1` ?
[A] inactive

[Q] Hello, I am checking results. What call was entered for `COC(=O)/N=[N+](\[O-])C(c1ccccc1)c1ccccc1` ?
[A] inactive

[Q] Hello, I am checking results. What call was entered for `CC(=O)OCc1cccc(O)c1C(=O)CCC=C(C)C` ?
[A] inactive

[Q] Hello, I am checking results. What call was entered for `Cc1ccc(S(=O)(=O)N2CCN(S(=O)(=O)c3ccc(C)cc3)CCN(S(=O)(=O)c3ccc(C)cc3)Cc3cc(Br)c(Br)cc3CN(S(=O)(=O)c3ccc(C)cc3)CC2)cc1` ?
[A] inactive

[Q] Hello, I am checking results. What call was entered for COc1cccc(N2C(=O)C3CC(CC(C)(C)C)c4c([nH]c5ccccc45)C3C2=O)c1 (centres undefined) ?
[A] inactive

[Q] Hello, I am checking results. What call was entered for CC(C)CCC[C@@H](C)C1CCC2[C@@H]3CCC4C[C@@H](NS(C)(=O)=O)CC[C@]4(C)C3CC[C@@]21C (some centres undefined) ?
[A] inactive

[Q] Hello, I am checking results. What call was entered for CCOC(=O)C1CCCCN1C(=O)Cc1c[nH]c2ccccc12 (centres undefined) ?
[A] inactive

[Q] Hello, I am checking results. What call was entered for `CC(=S)NC=C(C(N)=O)C(N)=O` ?
[A] inactive

[Q] Hello, I am checking results. What call was entered for Nc1nc(Cl)c(N)c(NCC2(CO)CC(Cc3ccccc3)C2)n1 (centres undefined) ?
[A] inactive

[Q] Hello, I am checking results. What call was entered for `COc1cnc2cc(C(=O)O)c3c([N+](=O)[O-])cccc3c2c1` ?
[A] inactive

[Q] Hello, I am checking results. What call was entered for `Cc1cc(=O)n2nc(CSc3nnc(Sc4cc(O)ccc4O)s3)sc2n1` ?
[A] inactive

[Q] Hello, I am checking results. What call was entered for `O=c1c2nc(-c3ccccc3)oc2n(-c2ccccc2)c(=O)n1-c1ccccc1` ?
[A] inactive

[Q] Hello, I am checking results. What call was entered for O=C1CC(C(O)(C(F)(F)F)C(F)(F)Cl)CCC1C(O)(C(F)(F)F)C(F)(F)Cl (centres undefined) ?
[A] inactive

[Q] Hello, I am checking results. What call was entered for `O=C1C=C(c2ccccc2)O/C1=C/C(=O)c1ccc(Cl)cc1` ?
[A] inactive

[Q] Hello, I am checking results. What call was entered for CC1CC2C3CCC4=CC(=O)C=CC4(C)C3(F)C(O)CC2(C)C1(O)C(=O)COP(=O)(O)O (centres undefined) ?
[A] inactive

[Q] Hello, I am checking results. What call was entered for `C/C(=N\Nc1nc2ccccc2s1)c1cnccn1` ?
[A] inactive

[Q] Hello, I am checking results. What call was entered for `COc1cc(C(=O)O)c(-c2cc3c(cc2C=O)OCO3)c(OC)c1OC` ?
[A] inactive

[Q] Hello, I am checking results. What call was entered for `O=C(N/N=C/c1ccc([N+](=O)[O-])cc1)c1cccc2nc3ccccc3nc12` ?
[A] inactive

[Q] Hello, I am checking results. What call was entered for `O=c1[nH]c(=S)[nH]cc1CN1CCOCC1` ?
[A] inactive

[Q] Hello, I am checking results. What call was entered for `O=C(OCCNC(=O)N1CC1)OCCNC(=O)N1CC1` ?
[A] inactive

[Q] Hello, I am checking results. What call was entered for `COc1ccc(C(=C2C=CC=C2)c2ccc(OC)cc2)cc1` ?
[A] inactive

[Q] Hello, I am checking results. What call was entered for `O=C(O)c1nn[nH]c1S` ?
[A] inactive

[Q] Hello, I am checking results. What call was entered for Cc1cc2c(cc1-c1cc3c(cc1C)C(C(C)C)=C(O)C(=O)/C3=C\NCC1CCCN3CCCCC13)/C(=C/NCC1CCCN3CCCCC13)C(=O)C(O)=C2C(C)C (centres undefined) ?
[A] inactive

[Q] Hello, I am checking results. What call was entered for `C#CCn1c(=O)c2cc(OC)c(OC)cc2n(CC#C)c1=O` ?
[A] inactive

[Q] Hello, I am checking results. What call was entered for `CC(=O)O[C@H]1CC[C@@H](OC(C)=O)[C@H]2[C@H](O)[C@H](O)[C@@H]1n1c(=O)n(-c3ccccc3)c(=O)n12` ?
[A] inactive

[Q] Hello, I am checking results. What call was entered for O=C1/C(=C/c2ccc(O)cc2)CCCC1CN1CCCCC1 (centres undefined) ?
[A] inactive

[Q] Hello, I am checking results. What call was entered for CC1CC(=O)Nc2nc3ccccc3n21 (centres undefined) ?
[A] inactive

[Q] Hello, I am checking results. What call was entered for CC(C)(C)C(=O)OCC1CCC[N+]2(C)CCCCC12 (centres undefined) ?
[A] inactive

[Q] Hello, I am checking results. What call was entered for O=C1OS2(OCc3cccc4cccc2c34)c2ccccc21 (centres undefined) ?
[A] inactive

[Q] Hello, I am checking results. What call was entered for COc1cccc(C2c3cc4c(cc3OC(N3CCOCC3)C2C)OCO4)c1O (centres undefined) ?
[A] active

[Q] Hello, I am checking results. What call was entered for `COc1ccccc1NCc1nnc(CCCCCCCCc2nnc(CNc3ccccc3OC)o2)o1` ?
[A] inactive

[Q] Hello, I am checking results. What call was entered for CCCNC(=O)CCC(C)[C@H]1CCC2C3C(C[C@H](OC(C)=O)[C@@]21C)[C@@]1(C)CCC2(C[C@H]1C[C@H]3OC(C)=O)OOC1(CCCCC1)OO2 (some centres undefined) ?
[A] inactive

[Q] Hello, I am checking results. What call was entered for `O=C1C=CC2(C=C1)C[C@H](NC(=O)OCc1ccccc1)C(=O)O2` ?
[A] inactive

[Q] Hello, I am checking results. What call was entered for `CC(=O)Nc1ccc(-c2nc3ccccc3s2)cc1O` ?
[A] inactive

[Q] Hello, I am checking results. What call was entered for `COc1ccc(-c2nc(N)c(C#N)c3c2CCSc2ccc(C)cc2-3)cc1OC` ?
[A] inactive

[Q] Hello, I am checking results. What call was entered for `COc1ccc([C@H]2[C@H](C)C3=Nc4ccccc4CN32)cc1` ?
[A] inactive

[Q] Hello, I am checking results. What call was entered for `C/N=C(N)/N=C(\N)Nc1cc2ccccc2c2ccccc12` ?
[A] inactive

Data provenance: ChEMBL document CHEMBL1201862
